The reported numbers originate from paper PMC3740522.

- testedTarget: calcium-sensing receptor (CaSR) (Rattus norvegicus, UniProt P48442)
- Sequence (P48442 20-1079): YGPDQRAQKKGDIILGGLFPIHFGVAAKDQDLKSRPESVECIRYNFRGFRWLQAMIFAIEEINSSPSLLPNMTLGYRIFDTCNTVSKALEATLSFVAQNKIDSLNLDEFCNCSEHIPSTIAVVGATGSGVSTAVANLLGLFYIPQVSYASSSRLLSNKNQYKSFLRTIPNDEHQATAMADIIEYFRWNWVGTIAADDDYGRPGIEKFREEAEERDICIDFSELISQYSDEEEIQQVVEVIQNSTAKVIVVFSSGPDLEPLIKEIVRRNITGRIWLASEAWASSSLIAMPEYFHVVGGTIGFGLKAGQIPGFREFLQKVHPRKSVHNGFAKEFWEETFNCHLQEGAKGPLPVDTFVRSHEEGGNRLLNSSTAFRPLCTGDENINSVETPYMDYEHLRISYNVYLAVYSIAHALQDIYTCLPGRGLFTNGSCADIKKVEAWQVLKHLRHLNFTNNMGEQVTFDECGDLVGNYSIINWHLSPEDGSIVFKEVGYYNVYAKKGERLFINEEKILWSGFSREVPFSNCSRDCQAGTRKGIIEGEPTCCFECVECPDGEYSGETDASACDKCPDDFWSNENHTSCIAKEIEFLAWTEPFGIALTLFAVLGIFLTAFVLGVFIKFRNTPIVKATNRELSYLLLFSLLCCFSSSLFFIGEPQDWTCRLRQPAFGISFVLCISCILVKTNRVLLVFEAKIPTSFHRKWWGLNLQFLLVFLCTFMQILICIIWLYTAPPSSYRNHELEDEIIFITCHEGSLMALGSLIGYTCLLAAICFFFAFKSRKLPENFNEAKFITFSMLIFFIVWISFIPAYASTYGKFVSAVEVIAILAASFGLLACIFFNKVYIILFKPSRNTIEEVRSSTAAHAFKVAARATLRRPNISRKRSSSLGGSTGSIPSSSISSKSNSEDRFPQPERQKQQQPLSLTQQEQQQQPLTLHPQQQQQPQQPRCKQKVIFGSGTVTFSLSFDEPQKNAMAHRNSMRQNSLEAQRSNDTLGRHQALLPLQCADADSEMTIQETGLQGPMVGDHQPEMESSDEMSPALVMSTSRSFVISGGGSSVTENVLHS
- testDescription: inhibition of calcium-stimulated IP1 accumulation in HEK293 cells stably transfected with rat CaSR
reportedEndpoint: IC50 (nM)
Give bare numbers, in nM.

calcium-sensing receptor (CaSR) (Rattus norvegicus, UniProt P48442) data for CC(C)(Cc1ccc2ccccc2c1)NC[C@@H](O)COc1cccc(Cl)c1C#N [(R)-3, NPS 2143] ; its IC50: 640
